For each entry below, report its inhibition at 0.001 µM value.
target_of_assay: CYP17 (human testicular microsome) (Homo sapiens, UniProt P05093)
Construct: using microsomal fraction from human testis (Celsis Cat #S00110) as the enzyme source; tissue Celsis S00110; host or cells: human testis microsomal fraction
Sequence (P05093 whole entry): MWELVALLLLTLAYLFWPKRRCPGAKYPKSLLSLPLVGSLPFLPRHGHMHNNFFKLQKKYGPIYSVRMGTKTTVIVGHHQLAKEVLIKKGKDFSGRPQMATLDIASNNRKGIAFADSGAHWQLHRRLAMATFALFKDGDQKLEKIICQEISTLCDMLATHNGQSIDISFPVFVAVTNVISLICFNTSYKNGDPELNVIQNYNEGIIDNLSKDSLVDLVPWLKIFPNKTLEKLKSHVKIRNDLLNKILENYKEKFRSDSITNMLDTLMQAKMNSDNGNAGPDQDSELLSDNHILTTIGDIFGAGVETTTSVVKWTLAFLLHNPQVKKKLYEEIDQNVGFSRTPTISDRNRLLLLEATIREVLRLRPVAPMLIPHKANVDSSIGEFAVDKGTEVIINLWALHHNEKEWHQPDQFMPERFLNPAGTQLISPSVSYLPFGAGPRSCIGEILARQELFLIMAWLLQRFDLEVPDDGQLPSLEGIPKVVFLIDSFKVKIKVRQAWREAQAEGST
assay_details: CYP17 enzymatic assay (% inhibition at 1 nM) (Biological Example 12)
Format: biochemical
cond: compound at 1 nM, read-out: CYP17 enzymatic assay % inhibition at 1 nM (Biological Example No. 12)

-- ask Let me know recorded inhibition at 0.001 µM for C[C@]12CC[C@H]3[C@@H](CC(Nc4nccs4)C45CC4CC[C@]35C)[C@@H]1CC=C2c1cccnc1 (stereo partly shown) [Compound 251] , thanks.
-- reply 10 to 50%

-- ask Let me know recorded inhibition at 0.001 µM for CC(=O)NC1CC[C@@]2(C)C(=CCC3C2CC[C@]2(C)C(n4ccnc4)=CCC32)C1 (stereo partly shown) [Compound 237] , thanks.
-- reply > 50%

-- ask Let me know recorded inhibition at 0.001 µM for CN1C(=O)C[C@@]2(C)C1=CCC1C2CC[C@]2(C)C(n3ccnc3)=CCC12 (stereo partly shown) [Compound 186] , thanks.
-- reply 10 to 50%

-- ask Let me know recorded inhibition at 0.001 µM for CC(=O)N[C@@H]1CC[C@@]2(C)C(=CCC3C2CC[C@]2(C)C(c4cccnc4)=CCC32)C1 (stereo partly shown) [Compound 223] , thanks.
-- reply > 50%

-- ask Let me know recorded inhibition at 0.001 µM for CCNC(=O)O[C@H]1CC[C@@]2(C)C(=CC[C@H]3C4=CC=C(c5cccnc5)[C@@]4(C)CC[C@@H]32)C1 [Compound 202] , thanks.
-- reply < 10%

-- ask Let me know recorded inhibition at 0.001 µM for C[C@]12CC[C@H]3[C@@H](CC=C4C[C@H](NC(=O)C5CC5)CC[C@@]43C)C1=CC=C2n1ccnc1 [Compound 246] , thanks.
-- reply 10 to 50%

-- ask Let me know recorded inhibition at 0.001 µM for Cc1ccncc1C1=CC=C2[C@@H]3CC=C4C[C@@H](O)CC[C@]4(C)[C@H]3CC[C@]12C [Compound 190] , thanks.
-- reply > 50%

* * *

target_of_assay: Cyp21 enzyme (Human HEK 293-Cyp21 stable transfected cells) (Homo sapiens)
Construct: expressed in transfected cells
Sequence (P08686 whole entry): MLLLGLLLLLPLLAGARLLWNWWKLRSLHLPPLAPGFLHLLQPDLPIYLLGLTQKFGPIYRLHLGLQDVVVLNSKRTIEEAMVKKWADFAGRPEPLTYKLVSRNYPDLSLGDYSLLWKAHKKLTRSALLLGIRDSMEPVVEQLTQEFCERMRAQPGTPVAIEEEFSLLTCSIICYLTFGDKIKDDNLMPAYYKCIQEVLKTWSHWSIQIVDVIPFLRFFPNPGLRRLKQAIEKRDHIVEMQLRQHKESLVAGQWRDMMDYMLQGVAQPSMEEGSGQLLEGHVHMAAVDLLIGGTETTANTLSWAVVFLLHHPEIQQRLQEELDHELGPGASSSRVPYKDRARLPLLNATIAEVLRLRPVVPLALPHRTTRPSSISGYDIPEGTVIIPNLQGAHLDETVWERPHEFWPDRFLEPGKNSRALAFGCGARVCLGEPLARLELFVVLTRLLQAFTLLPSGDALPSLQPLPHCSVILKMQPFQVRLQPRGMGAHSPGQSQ
assay_details: CYP21-HEK293 enzymatic assay (IC50) (Biological Example 11)
Type: cell-based
cond: HEK 293-Cyp21 cells, DOC by ELISA; read-out: Biological Example No. 11: CYP21-HEK293 IC50
pIC50: −log10 of the molar value.
outcome_measure: pIC50

-- ask GET pIC50 where system = Cyp21 enzyme (Human HEK 293-Cyp21 stable transfected cells) (Homo sapiens) and item = C[C@]12CCC(=O)C=C1C(F)CC1C2CC[C@]2(C)C(c3cccnc3)=CCC12 (stereo partly shown) [D, reference compound]
-- reply < 6.00

* * *

target_of_assay: CYP17 (human testicular microsome) (Homo sapiens, UniProt P05093)
Construct: using microsomal fraction from human testis (Celsis Cat #S00110) as the enzyme source; tissue Celsis S00110; host or cells: human testis microsomal fraction
assay_details: CYP17 enzymatic assay (% inhibition at 10 nM), version 1 (Biological Example 5)
Assay type: biochemical
cond: 10 nM compound, DHEA by ELISA, read-out: Biological Example No. 5: CYP17 percent inhibition at 10 nM (version 1)
outcome_measure: inhibition at 0.01 µM

-- ask Let me know recorded inhibition at 0.01 µM for C[C@]12CCCCC[C@@H]1CC[C@@H]1[C@@H]2CC[C@]2(C)C(c3cnccc3Cl)=CC[C@@H]12 , thanks.
-- reply 1 to 50%

-- ask Let me know recorded inhibition at 0.01 µM for CCOc1cncc(C2=CC[C@H]3[C@@H]4CC[C@H]5COCCC[C@]5(C)[C@H]4CC[C@]23C)c1 , thanks.
-- reply 50 to 80%

-- ask Let me know recorded inhibition at 0.01 µM for C[C@]12CCNC(=O)C[C@@H]1CC[C@@H]1[C@@H]2CC[C@]2(C)C(n3ccnn3)=CC[C@@H]12 , thanks.
-- reply > 80%

-- ask Let me know recorded inhibition at 0.01 µM for C[C@]12CCCCC1C(=O)C[C@@H]1[C@@H]2CC[C@]2(C)C(n3ccnc3)=CC[C@@H]12 (stereo partly shown) , thanks.
-- reply > 80%
